System: NMC-G1;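 note: growth inhibition of the NMC-G1 cell line, measured with a cell viability read-out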
Experiment: cells
Format: functional, cell-based, Homo sapiens
Details: Homo sapiens, NMC-G1
Description: SANGER: Inhibition of human NMC-G1 cell growth in a cell viability assay.
pIC50: −log10 of the molar value.
The compounds listed here are annotated with their pIC50.
measured_attribute: pIC50

[
  {
    "compound": "CC(C)c1ccccc1Cc1cc(C(=O)Nc2ccc(S(=O)(=O)c3ccccc3C(C)(C)C)cc2)c(O)c(O)c1O",
    "measured_attribute": "pIC50",
    "inequality_operator": "=",
    "reported_measurement": 6.30
  },
  {
    "compound": "Cn1cnc2c(F)c(Nc3ccc(Br)cc3Cl)c(C(=O)NOCCO)cc21 [SELUMETINIB]",
    "measured_attribute": "pIC50",
    "inequality_operator": "<",
    "reported_measurement": 5.40
  },
  {
    "compound": "C#Cc1cccc(Nc2ncnc3cc(OCCOC)c(OCCOC)cc23)c1 [ERLOTINIB]",
    "measured_attribute": "pIC50",
    "inequality_operator": "<",
    "reported_measurement": 5.70
  },
  {
    "compound": "COc1cc(-c2nn([C@H]3CC[C@H](N4CCN(C(C)=O)CC4)CC3)c3ncnc(N)c23)ccc1NC(=O)c1cc2ccccc2n1C",
    "measured_attribute": "pIC50",
    "inequality_operator": "=",
    "reported_measurement": 6.24
  },
  {
    "compound": "Nc1ccn([C@@H]2O[C@H](CO)[C@@H](O)C2(F)F)c(=O)n1 [GEMCITABINE]",
    "measured_attribute": "pIC50",
    "inequality_operator": "=",
    "reported_measurement": 8.06
  },
  {
    "compound": "COc1cc2ncn(-c3cc(OCc4ccccc4C(F)(F)F)c(C(N)=O)s3)c2cc1OC [GW843682X]",
    "measured_attribute": "pIC50",
    "inequality_operator": "=",
    "reported_measurement": 6.69
  },
  {
    "compound": "CC1(C)CNc2cc(NC(=O)c3cccnc3NCc3ccncc3)ccc21 [MOTESANIB]",
    "measured_attribute": "pIC50",
    "inequality_operator": "<",
    "reported_measurement": 5.70
  },
  {
    "compound": "COc1cccc2c1C(=O)c1c(O)c3c(c(O)c1C2=O)C[C@@](O)(C(=O)CO)C[C@@H]3O[C@H]1C[C@H](N)[C@H](O)[C@H](C)O1 [DOXORUBICIN]",
    "measured_attribute": "pIC50",
    "inequality_operator": "=",
    "reported_measurement": 6.86
  }
]

###

System: ATN-1;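 note: growth inhibition of human ATN-1 cells, read out with a cell viability assay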
Test: cells
Assay type: functional, cell-based, Homo sapiens
Details: atn-1
Description: SANGER: Inhibition of human ATN-1 cell growth in a cell viability assay.
pIC50: −log10 of the molar value.

[
  {
    "sequence_chain": "BLEOMYCIN",
    "pIC50": 4.72
  }
]

###

Each record here notes measured pIC50.
System: LB771-HNC
Test: cells
Type: functional, cell-based, Homo sapiens
Settings: Homo sapiens, LB771-HNC
Description: SANGER: Inhibition of human LB771-HNC cell growth in a cell viability assay.
pIC50: −log10 of the molar value.

[
  {
    "item_smiles": "Cn1cnc2c(F)c(Nc3ccc(Br)cc3Cl)c(C(=O)NOCCO)cc21",
    "target_of_assay": "LB771-HNC",
    "pIC50": "< 5.40"
  },
  {
    "item_smiles": "CCN(CC)CCNC(=O)c1c(C)[nH]c(/C=C2\\C(=O)Nc3ccc(F)cc32)c1C",
    "target_of_assay": "LB771-HNC",
    "pIC50": "< 5.10"
  },
  {
    "item_smiles": "OCCCNc1cc(-c2ccnc(Nc3cccc(Cl)c3)n2)ccn1",
    "target_of_assay": "LB771-HNC",
    "pIC50": 6.79
  },
  {
    "item_smiles": "COc1cc(-c2nn([C@H]3CC[C@H](N4CCN(C(C)=O)CC4)CC3)c3ncnc(N)c23)ccc1NC(=O)c1cc2ccccc2n1C",
    "target_of_assay": "LB771-HNC",
    "pIC50": "< 5.29"
  }
]
